molecular target: CYCLIN K (nuclear staining in CAL-120 cells) (Homo sapiens); construct: endogenous in cells; host or cells: CAL-120 human breast cancer cells (DSMZ ACC 459); experiment: CYCLIN K nuclear protein level: immunofluorescence high content analysis (CAL-120); format: cell-based; settings: 24 h, 50% reduction of nuclear CCNK staining intensity, median, read-out: CYCLIN K degradation IF, DC50-[mol/l] (median)
Sequence (O75909 whole entry): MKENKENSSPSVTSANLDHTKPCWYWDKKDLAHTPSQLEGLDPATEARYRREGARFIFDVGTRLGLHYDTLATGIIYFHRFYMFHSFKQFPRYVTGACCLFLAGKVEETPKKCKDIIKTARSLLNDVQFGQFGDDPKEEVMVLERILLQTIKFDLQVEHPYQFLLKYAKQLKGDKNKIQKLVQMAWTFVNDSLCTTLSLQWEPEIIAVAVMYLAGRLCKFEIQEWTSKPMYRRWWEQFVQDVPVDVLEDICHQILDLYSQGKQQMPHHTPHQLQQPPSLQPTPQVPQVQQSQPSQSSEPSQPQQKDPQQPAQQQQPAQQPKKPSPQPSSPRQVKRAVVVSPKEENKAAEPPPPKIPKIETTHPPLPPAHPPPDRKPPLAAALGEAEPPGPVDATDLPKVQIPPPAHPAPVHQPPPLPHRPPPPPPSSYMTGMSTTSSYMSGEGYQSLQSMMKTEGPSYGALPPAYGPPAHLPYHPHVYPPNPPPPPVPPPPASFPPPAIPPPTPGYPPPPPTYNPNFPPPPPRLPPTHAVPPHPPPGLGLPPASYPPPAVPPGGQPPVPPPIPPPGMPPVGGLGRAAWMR
Sequence (Q9NYV4 whole entry partner): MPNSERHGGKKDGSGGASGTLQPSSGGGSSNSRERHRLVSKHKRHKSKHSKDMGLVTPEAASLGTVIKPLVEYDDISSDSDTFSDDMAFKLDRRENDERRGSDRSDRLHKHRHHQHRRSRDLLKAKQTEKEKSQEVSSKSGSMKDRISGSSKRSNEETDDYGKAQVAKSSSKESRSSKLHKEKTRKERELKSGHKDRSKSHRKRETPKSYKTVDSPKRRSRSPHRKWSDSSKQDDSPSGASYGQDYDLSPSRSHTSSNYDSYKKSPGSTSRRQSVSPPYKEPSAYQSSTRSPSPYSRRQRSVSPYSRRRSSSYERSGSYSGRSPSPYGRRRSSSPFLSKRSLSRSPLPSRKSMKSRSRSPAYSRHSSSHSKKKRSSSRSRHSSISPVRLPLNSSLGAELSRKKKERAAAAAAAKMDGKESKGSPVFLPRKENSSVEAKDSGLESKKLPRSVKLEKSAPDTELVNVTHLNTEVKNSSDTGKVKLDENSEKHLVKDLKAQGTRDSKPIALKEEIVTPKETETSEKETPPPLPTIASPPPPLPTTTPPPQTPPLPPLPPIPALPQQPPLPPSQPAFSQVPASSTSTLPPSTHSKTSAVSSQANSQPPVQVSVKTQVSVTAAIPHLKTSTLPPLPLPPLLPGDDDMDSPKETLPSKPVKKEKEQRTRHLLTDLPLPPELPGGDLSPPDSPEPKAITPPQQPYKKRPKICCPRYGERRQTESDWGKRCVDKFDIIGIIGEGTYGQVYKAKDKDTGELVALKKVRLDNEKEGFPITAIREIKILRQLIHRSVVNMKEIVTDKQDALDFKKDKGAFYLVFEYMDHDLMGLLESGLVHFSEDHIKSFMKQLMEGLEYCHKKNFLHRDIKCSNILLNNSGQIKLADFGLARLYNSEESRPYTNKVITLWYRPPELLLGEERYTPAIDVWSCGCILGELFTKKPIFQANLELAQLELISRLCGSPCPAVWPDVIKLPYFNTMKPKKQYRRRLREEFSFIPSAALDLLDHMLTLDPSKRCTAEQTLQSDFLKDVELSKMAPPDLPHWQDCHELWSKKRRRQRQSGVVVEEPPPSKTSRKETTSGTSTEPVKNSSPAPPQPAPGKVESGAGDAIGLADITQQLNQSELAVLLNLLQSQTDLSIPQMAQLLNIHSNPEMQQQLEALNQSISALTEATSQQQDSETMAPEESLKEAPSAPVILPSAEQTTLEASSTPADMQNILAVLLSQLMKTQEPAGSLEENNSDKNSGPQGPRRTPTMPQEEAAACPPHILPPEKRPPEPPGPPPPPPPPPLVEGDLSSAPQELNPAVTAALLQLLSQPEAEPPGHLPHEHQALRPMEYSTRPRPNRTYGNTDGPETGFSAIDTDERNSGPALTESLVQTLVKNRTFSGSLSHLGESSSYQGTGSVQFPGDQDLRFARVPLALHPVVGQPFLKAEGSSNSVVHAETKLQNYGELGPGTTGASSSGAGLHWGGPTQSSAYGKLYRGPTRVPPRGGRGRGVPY
metric: DC50 (nM)
Just the number in nM, nothing appended.

C[C@@H]1CN(c2nc(NCc3nc4ccccc4[nH]3)n3ncc(Br)c3n2)C[C@H](C)N1 [Example 142]; 0.163
Cc1ccnc2[nH]c(CNc3nc(N4CCOCC4)nc4c(Br)cnn34)nc12 [Example 20]; 1.35
CCc1cnn2c(NCc3nc4c(OC)cccc4[nH]3)nc(N3CCOCC3)nc12 [Example 433]; 0.441

We now examine a further compound.
Give the reported value of DC50 for this record: Cc1cccc(-c2nnc(CNc3nc(N4CCOCC4)nc4c(Br)cnn34)[nH]2)c1 [Example 40] 0.611
